targetOfAssay: Human DAAO (Homo sapiens)
Sequence (P14920 whole entry): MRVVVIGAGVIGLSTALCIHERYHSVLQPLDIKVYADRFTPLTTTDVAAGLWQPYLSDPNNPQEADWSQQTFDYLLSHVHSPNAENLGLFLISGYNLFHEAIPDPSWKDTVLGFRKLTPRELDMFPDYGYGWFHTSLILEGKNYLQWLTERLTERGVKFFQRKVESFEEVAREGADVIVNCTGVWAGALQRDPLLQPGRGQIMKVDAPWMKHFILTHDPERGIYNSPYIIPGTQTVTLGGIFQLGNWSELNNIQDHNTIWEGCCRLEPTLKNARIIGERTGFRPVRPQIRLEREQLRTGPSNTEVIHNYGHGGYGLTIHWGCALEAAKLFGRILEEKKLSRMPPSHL
assayName: D-Amino Acid Oxidase Enzyme Assay (D-serine substrate, horseradish peroxidase/Amplex Red coupled fluorescence)
Type: biochemical
statedConditions: D-serine 5 mM, pH 7.4; read-out: Human DAAO Inhibition (IC50)
parameterMeasured: IC50

Worked set:
{"columns": ["molecule", "IC50"],
 "data": [
  ["O=C(O)c1cc2scc(Cl)c2[nH]1 [Compound 67]", "< 25 nM"],
  ["O=C(O)c1[nH]c2ccsc2c1F [Compound 54]", "< 25 nM"],
  ["O=C(O)c1[nH]c2sccc2c1Cl [Compound 69]", "< 100 nM"],
  ["O=C(O)c1cc2c(F)csc2[nH]1 [Compound 68]", "< 25 nM"],
  ["O=C(O)c1cc2cc(Br)sc2[nH]1 [Compound 65]", "< 100000 nM"]
]}

Would you mind telling me what IC50 value was observed for O=C(O)c1cc2cc(Cl)sc2[nH]1 [Compound 80] ?
< 100000 nM

# input molecule: O=C(O)c1[nH]c2sccc2c1Br [Compound 64] ; wanted: its IC50
< 1000 nM

Bench note: what IC50 did O=C(O)c1cc2scc(F)c2[nH]1 [Compound 56] show?
< 25 nM

Quick one: IC50 for O=C(O)c1cc2c(Cl)csc2[nH]1 [Compound 81] ?
< 100 nM

Fill blank: measured IC50 of the molecule O=C(O)c1cc2occ(Br)c2[nH]1 [Compound 30] is ____.
< 100 nM

# IC50 lookup, item O=C(O)c1cc2scc(Br)c2[nH]1 [Compound 49]
< 100 nM

Reported IC50, molecule O=C(O)c1cc2oc(Br)cc2[nH]1 [Compound 73] : ____
< 100000 nM
